target: DNA topoisomerase 2-alpha (Homo sapiens); test: Inhibition of human topoisomerase-2 alpha assessed as decrease in relaxation of supercoiled pBR322 plasmid DNA at 100 uM after 30 mins by ethidium bromide staining based agarose gel electrophoresis relative to etoposide
Activity calls are given as the source filed them. The rule behind the calls is not given here.
Readout name: fold change (FC)

Example molecules with recorded fold change (FC):
>>> endpoint_value("Oc1ccccc1-c1cc(-c2cccc(Cl)c2)cc(-c2ccccc2O)n1")
"inactive"
>>> endpoint_value("Oc1ccc(-c2cc(-c3cccc(Cl)c3)cc(-c3cccc(O)c3)n2)cc1")
0.91
>>> endpoint_value("Oc1cccc(-c2cc(-c3cccc(Cl)c3)cc(-c3cccc(O)c3)n2)c1")
0.91
>>> endpoint_value("Oc1cccc(-c2cc(-c3ccc(Cl)cc3)cc(-c3cccc(O)c3)n2)c1")
0.94

For the next question, use this molecule.
Name the reported fold change (FC) value associated with the molecule Oc1cccc(-c2cc(-c3ccc(Cl)cc3)cc(-c3ccccc3O)n2)c1
inactive
